Biological target: IRAK4 (Homo sapiens, UniProt Q9NWZ3)
Sequence (Q9NWZ3 1-460): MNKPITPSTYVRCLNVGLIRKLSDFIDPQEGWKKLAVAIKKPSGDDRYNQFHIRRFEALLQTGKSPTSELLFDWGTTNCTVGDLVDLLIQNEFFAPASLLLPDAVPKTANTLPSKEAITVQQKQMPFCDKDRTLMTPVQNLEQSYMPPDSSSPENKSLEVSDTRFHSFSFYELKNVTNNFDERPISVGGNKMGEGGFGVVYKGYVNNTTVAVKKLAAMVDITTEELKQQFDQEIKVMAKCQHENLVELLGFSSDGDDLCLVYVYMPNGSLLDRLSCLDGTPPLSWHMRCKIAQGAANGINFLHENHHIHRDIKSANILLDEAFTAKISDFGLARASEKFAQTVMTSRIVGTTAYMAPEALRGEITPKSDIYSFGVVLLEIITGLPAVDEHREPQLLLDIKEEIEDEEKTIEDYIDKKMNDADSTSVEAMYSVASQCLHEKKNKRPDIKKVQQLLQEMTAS
Assay: ALE THP1 HTRF (IRAK4 degradation in THP1 cells, HTRF with anti-IRAK4 antibodies)
Type: cell-based
Design: THP1 Homogeneous Time Resolved Fluorescence (ALE THP1 HTRF) Procedure; endogenous in cells; host or cells: THP1
Settings: THP1 cell lysate, read-out: ALE THP1 HTRF EC50
Counter-ions that a name gives are not always drawn.
Property label: DC50 (nM)

Requested read-out: DC50. Entry: N[C@@H]1C[C@@H](F)CN(c2ccn3ncc(C(=O)Nc4cn([C@H]5CC[C@H](CCN6CCC(Nc7cccc(C8CCC(=O)NC8=O)c7)CC6)CC5)nc4C(F)F)c3n2)C1 (some centres unmarked) [Compound P-24, dihydrochloride]
12

Requested read-out: DC50. Entry: N[C@@H]1C[C@@H](F)CN(c2ccn3ncc(C(=O)Nc4cn([C@H]5CC[C@H](CN6CCC(Nc7ccc(C8CCC(=O)NC8=O)cc7)CC6)CC5)nc4C(F)(F)F)c3n2)C1 (some centres unmarked) [Compound P-5, hydrochloride]
57

Requested read-out: DC50. Entry: CN(CC1CCN(C(=O)[C@H]2CC[C@H](n3cc(NC(=O)c4cnn5ccc(N6C[C@H](N)C[C@@H](F)C6)nc45)c(C(F)F)n3)CC2)CC1)c1cccc(C2CCC(=O)NC2=O)c1 (some centres unmarked) [Compound P-16, hydrochloride]
28

(1) N[C@@H]1C[C@@H](F)CN(c2ccn3ncc(C(=O)Nc4cn([C@H]5CC[C@H](CN6CCC(CNc7cccc(C8CCC(=O)NC8=O)c7)CC6)CC5)nc4C(F)(F)F)c3n2)C1 (some centres unmarked) [Compound P-6, hydrochloride]
(2) N[C@@H]1C[C@@H](F)CN(c2ccn3ncc(C(=O)Nc4cn([C@H]5CC[C@H](C(=O)N6CCC(CNc7ccc(C8CCC(=O)NC8=O)cc7)CC6)CC5)nc4C(F)(F)F)c3n2)C1 (some centres unmarked) [Compound P-2, hydrochloride]
Choose between 1 and 2 : whose measured DC50 value is numerically larger? Record your answer as the label of the chosen record.
2

* * *

Molecular target: IRAK4 (Homo sapiens, UniProt Q9NWZ3)
Sequence (Q9NWZ3 1-460): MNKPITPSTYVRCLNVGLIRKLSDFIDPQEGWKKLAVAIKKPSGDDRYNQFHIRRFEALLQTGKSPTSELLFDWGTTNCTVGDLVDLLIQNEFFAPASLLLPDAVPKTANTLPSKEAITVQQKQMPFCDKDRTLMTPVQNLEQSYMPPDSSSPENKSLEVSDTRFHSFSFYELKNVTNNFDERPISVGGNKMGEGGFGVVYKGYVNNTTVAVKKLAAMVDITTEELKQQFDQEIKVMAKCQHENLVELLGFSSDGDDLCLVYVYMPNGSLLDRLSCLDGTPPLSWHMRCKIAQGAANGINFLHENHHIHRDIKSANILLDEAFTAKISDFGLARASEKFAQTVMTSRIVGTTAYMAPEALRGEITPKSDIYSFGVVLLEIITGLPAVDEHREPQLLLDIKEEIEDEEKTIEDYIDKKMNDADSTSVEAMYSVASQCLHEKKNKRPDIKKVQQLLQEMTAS
Experiment: ALE THP1 HTRF (IRAK4 degradation in THP1 cells, HTRF with anti-IRAK4 antibodies)
Format: cell-based
Design: THP1 Homogeneous Time Resolved Fluorescence (ALE THP1 HTRF) Procedure; endogenous in cells; host or cells: THP1
Conditions: THP1 cell lysate, YMIN
Procedure: Cell culture media was prepared in a tissue culture hood in a sterile environment by adding 10% FBS and 1% Penicillin Streptomycin to 500 mL no phenol red RPMI 1640 media. The media was filtered through a Nalgene Bottle Top Filter and stored at 4° C. For Homogenous Time Resolved Fluorescence (HTRF) assays, a Cisbio HTRF kit was used, which included: Lysis Buffer #1 4×, Blocking Reagent #3 100×, 20× Antibody 1 (Anti-IRAK4 d2), 20× Antibody 2 (Anti-IRAK4 k), and Detection Buffer. […]
Counter-ions that a name gives are not always drawn.
Property label: ALE THP1 HTRF YMIN (%)

# count of solved cases: 3
Requested read-out: ALE THP1 HTRF YMIN. Entry: N[C@@H]1C[C@@H](F)CN(c2ccn3ncc(C(=O)Nc4cn([C@H]5CC[C@H](CN6CCC7(CC6)CN(c6cccc(C8CCC(=O)NC8=O)c6)C7)CC5)nc4C(F)F)c3n2)C1 (some centres unmarked) [Compound P-18]
13

Requested read-out: ALE THP1 HTRF YMIN. Entry: N[C@@H]1C[C@@H](F)CN(c2ccn3ncc(C(=O)Nc4cn([C@H]5CC[C@H](CCN6CCC7(CC6)CN(c6cccc(C8CCC(=O)NC8=O)c6)C7)CC5)nc4C(F)F)c3n2)C1 (some centres unmarked) [Compound P-26]
7

Requested read-out: ALE THP1 HTRF YMIN. Entry: N[C@@H]1C[C@@H](F)CN(c2ccn3ncc(C(=O)Nc4cn([C@H]5CC[C@H](CN6CCN(c7ccc(C8CCC(=O)NC8=O)cc7)CC6)CC5)nc4C(F)(F)F)c3n2)C1 (some centres unmarked) [Compound P-10]
20

(P) N[C@@H]1C[C@@H](F)CN(c2ccn3ncc(C(=O)Nc4cn([C@H]5CC[C@H](C(=O)N6CCC(CNc7cccc(C8CCC(=O)NC8=O)c7)CC6)CC5)nc4C(F)(F)F)c3n2)C1 (some centres unmarked) [Compound P-1, hydrochloride salt]
(Q) N[C@@H]1C[C@@H](F)CN(c2ccn3ncc(C(=O)Nc4cn([C@H]5CC[C@H](C(=O)NC6CCN(c7cccc(C8CCC(=O)NC8=O)c7)CC6)CC5)nc4C(F)F)c3n2)C1 (some centres unmarked) [Compound P-14]
I'm curious whether P or Q has the smaller ALE THP1 HTRF YMIN number. Which is it? Record your answer as the label of the chosen record.
P
